Overview of reported protein stability index across a group of variants:
B1: PTPRD (parent)
chain: LTKLREMGREKCHQYWPAERSARY

Variants of: B1
Test: protein stability index of a GFP-peptide fusion (GPS, HEK-293T) (PSI 1-6); higher = more stable;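 also: lentivirally expressed fusions sorted by FACS into six bins by GFP to DsRed ratio, PSI derived from sequencing read proportions per bin multiplied by bin number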
Settings: c terminus: a fixed tail appended
Could you keep your reply to the number by itself?

Solved cases (4 shown):
variant label: Y15N
protein stability index: 3.19
//
variant label: C12D
protein stability index: 3.48
//
variant label: L4M
protein stability index: 2.65
//
variant label: Y24M
protein stability index: 2.12

Quick one: protein stability index of H13N ?
2.79

Quick one: protein stability index of S21K ?
2.72

Quick one: protein stability index of K11D ?
3.21

Quick one: protein stability index of Q14F ?
1.84

Quick one: protein stability index of A18G ?
2.06
